TARGET ENTITY: ErbB2 (Homo sapiens)
Construct: expressed in transfected cells; host or cells: yeast
Sequence (P04626 23-1255): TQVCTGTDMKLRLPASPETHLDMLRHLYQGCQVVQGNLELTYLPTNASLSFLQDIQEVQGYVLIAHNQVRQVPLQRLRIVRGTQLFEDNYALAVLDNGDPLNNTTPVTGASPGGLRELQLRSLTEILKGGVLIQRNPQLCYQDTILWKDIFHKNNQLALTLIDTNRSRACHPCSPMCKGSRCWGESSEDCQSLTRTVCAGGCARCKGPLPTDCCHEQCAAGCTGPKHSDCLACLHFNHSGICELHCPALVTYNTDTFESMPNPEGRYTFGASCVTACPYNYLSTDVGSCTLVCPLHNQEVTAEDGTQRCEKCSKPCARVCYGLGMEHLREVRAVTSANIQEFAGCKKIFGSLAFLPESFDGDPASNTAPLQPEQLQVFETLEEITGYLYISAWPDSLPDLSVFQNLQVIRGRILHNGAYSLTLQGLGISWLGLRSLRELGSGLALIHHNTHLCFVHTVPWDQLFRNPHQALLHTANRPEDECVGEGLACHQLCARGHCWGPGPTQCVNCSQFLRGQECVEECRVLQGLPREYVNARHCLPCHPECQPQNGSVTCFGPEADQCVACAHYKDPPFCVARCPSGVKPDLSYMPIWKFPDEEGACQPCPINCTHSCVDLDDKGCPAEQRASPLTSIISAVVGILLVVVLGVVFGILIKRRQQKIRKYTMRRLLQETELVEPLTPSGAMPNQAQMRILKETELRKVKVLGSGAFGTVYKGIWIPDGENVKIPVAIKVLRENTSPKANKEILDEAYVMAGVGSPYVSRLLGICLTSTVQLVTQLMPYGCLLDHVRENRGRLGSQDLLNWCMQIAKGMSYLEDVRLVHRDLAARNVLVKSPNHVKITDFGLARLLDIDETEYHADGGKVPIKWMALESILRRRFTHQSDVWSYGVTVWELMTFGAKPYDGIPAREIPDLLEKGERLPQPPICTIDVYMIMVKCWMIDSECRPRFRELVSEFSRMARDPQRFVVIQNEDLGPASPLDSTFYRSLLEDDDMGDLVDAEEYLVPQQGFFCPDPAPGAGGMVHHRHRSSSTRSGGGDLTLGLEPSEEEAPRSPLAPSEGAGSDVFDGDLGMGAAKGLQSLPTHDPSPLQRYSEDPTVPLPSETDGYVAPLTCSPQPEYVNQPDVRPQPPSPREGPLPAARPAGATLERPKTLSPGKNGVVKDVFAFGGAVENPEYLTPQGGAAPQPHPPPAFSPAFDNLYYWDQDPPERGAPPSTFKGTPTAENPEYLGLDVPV
ASSAY COMMENT: Yeast growth assay, specificity profiling
Assay type: cell-based
Design: key: “−” indicates no growth restoration i.e. no activity against the particular kinase; “+”, “++”, and “+++” indicate activity detected by restoration of growth, classified into three categories of potency; “+”, “++”, and “+++” indicate activity detected by restoration of growth, classified into three categories of potency; “+”, “++”, and “+++” indicate activity detected by restoration of growth, classified into three categories of potency
CONDITION INFO: 7 concentrations between 0.2 and 100 μM
READOUT TYPE: ErbB2 growth restoration

Solved cases (4 shown):
Cc1cccc(Nc2c(-c3ccccc3)nc3c(C)nccn23)c1 ... −
Cc1nccn2c(Nc3ccc(F)c(F)c3)c(-c3ccccc3)nc12 ... −
Brc1cccc(Nc2c(-c3ccccc3)nc3cnccn23)c1 ... −
c1ccc(Nc2c(-c3ccccc3)nc3cnccn23)cc1 ... −

*Q* Using the record for Cc1nccn2c(Nc3cccc(Cl)c3)c(-c3ccccc3)nc12 , report its ErbB2 growth restoration.
*A* −

Where do the numbers come from? From patent US20070149535A1.
